Quick list: IC50 at 72 h per entry.
Assay: Cytotoxicity, resazurin, 72 h
Format: cell-based, human
Conditions: human, HeLa cervical carcinoma cells
readout_kind: IC50 at 72 h (µM)

compound | readout_kind | cmp | observed_result
CC1CCC2(OC3CC4C5CC=C6CC(O)CCC6(C)C5CCC4(C)C3C2C)S(=O)(=O)C1C (stereo not drawn) [α-Methylsulfone 11] | IC50 at 72 h | = | 92.3
CC1CCC2(OC3CC4C5CC6OC67CC(O)CCC7(C)C5CCC4(C)C3C2C)S(=O)(=O)C1 (stereo not shown) [Epoxysulfone 9] | IC50 at 72 h | > | 50
CCC1C(C)CCC2(OC3CC4C5CC=C6CC(O)CCC6(C)C5CCC4(C)C3C2C)S1(=O)=O (stereo not shown) [26-Ethylsulfone 12] | IC50 at 72 h | = | 44.1
CC1CCC2(OC3CC4C5CC=C6CC(O)CCC6(C)C5CCC4(C)C3C2C)[S+]([O-])C1 (stereo not shown) [Sulfoxide 6] | IC50 at 72 h | > | 50
